# Assay summary: Solubility assessment: saturated solutions in FaSSIF, FeSSIF, SGF and water, concentration by HPLC
# Format: physicochemical
# Condition set: FeSSIF pH=5.0, 1 h
Here the recorded Solubility is given for each entry.
Recorded endpoint: Solubility (µg/mL)

* CCC/N=C1\S/C(=C\c2ccc(OC[C@H](O)CO)c(Cl)c2)C(=O)N1c1ccccc1C [Form A, Ponesimod, reference compound] | 141
* CCC/N=C1\S/C(=C\c2ccc(OC[C@H](O)CO)c(Cl)c2)C(=O)N1c1ccccc1C [Form 2, Ponesimod] | 996
* CCC/N=C1\S/C(=C\c2ccc(OC[C@H](O)CO)c(Cl)c2)C(=O)N1c1ccccc1C [Form 3, Ponesimod] | 1168
* CCC/N=C1\S/C(=C\c2ccc(OC[C@H](O)CO)c(Cl)c2)C(=O)N1c1ccccc1C [Form C, Ponesimod, reference compound] | 133

###

# Assay summary: Solubility assessment: saturated solutions in FaSSIF, FeSSIF, SGF and water, concentration by HPLC
# Type: physicochemical
# Condition set: water, thermodynamic from solid, H2O, 24 h; ND = below the LOD of instrument
Recorded endpoint: solubility at 24 h (µg/mL)

- CCC/N=C1\S/C(=C\c2ccc(OC[C@H](O)CO)c(Cl)c2)C(=O)N1c1ccccc1C [Form C, Ponesimod, reference compound]: 1

###

# Solubility annotations
# Assay summary: Solubility assessment: saturated solutions in FaSSIF, FeSSIF, SGF and water, concentration by HPLC
# Format: physicochemical
# Condition set: FaSSIF pH=6.5, 1 h
Recorded endpoint: Solubility (µg/mL)

- CCC/N=C1\S/C(=C\c2ccc(OC[C@H](O)CO)c(Cl)c2)C(=O)N1c1ccccc1C [Form 2, Ponesimod]: 17
- CCC/N=C1\S/C(=C\c2ccc(OC[C@H](O)CO)c(Cl)c2)C(=O)N1c1ccccc1C [Form C, Ponesimod, reference compound]: 10
- CCC/N=C1\S/C(=C\c2ccc(OC[C@H](O)CO)c(Cl)c2)C(=O)N1c1ccccc1C [Form A, Ponesimod, reference compound]: 7
- CCC/N=C1\S/C(=C\c2ccc(OC[C@H](O)CO)c(Cl)c2)C(=O)N1c1ccccc1C [Form 3, Ponesimod]: 84

###

# Assay summary: Solubility assessment: saturated solutions in FaSSIF, FeSSIF, SGF and water, concentration by HPLC
# Assay type: physicochemical
# Condition set: FeSSIF pH=5.0, 24 h
# Procedure: Saturated solution of Form 2 and Form A, Form C disclosed in CN102177144B were prepared in FaSSIF (Fasted state simulated intestinal fluids, pH=6.5), FeSSIF (Fed state simulated intestinal fluids, pH=5.0), SGF (Simulated gastric fluids, pH=1.8), and water. Concentrations in the saturation solutions were measured after 1 hour and 24 hours by HPLC. […]
Recorded endpoint: Solubility (µg/mL)

- CCC/N=C1\S/C(=C\c2ccc(OC[C@H](O)CO)c(Cl)c2)C(=O)N1c1ccccc1C [Form 2, Ponesimod]: 813
- CCC/N=C1\S/C(=C\c2ccc(OC[C@H](O)CO)c(Cl)c2)C(=O)N1c1ccccc1C [Form 3, Ponesimod]: 486
- CCC/N=C1\S/C(=C\c2ccc(OC[C@H](O)CO)c(Cl)c2)C(=O)N1c1ccccc1C [Form A, Ponesimod, reference compound]: 163
- CCC/N=C1\S/C(=C\c2ccc(OC[C@H](O)CO)c(Cl)c2)C(=O)N1c1ccccc1C [Form C, Ponesimod, reference compound]: 149

###

# Assay summary: Solubility assessment: saturated solutions in FaSSIF, FeSSIF, SGF and water, concentration by HPLC
# Format: physicochemical
# Condition set: water, thermodynamic from solid, H2O, 1 h; ND = below the LOD of instrument
# Method: Saturated solution of Form 2 and Form A, Form C disclosed in CN102177144B were prepared in FaSSIF (Fasted state simulated intestinal fluids, pH=6.5), FeSSIF (Fed state simulated intestinal fluids, pH=5.0), SGF (Simulated gastric fluids, pH=1.8), and water. Concentrations in the saturation solutions were measured after 1 hour and 24 hours by HPLC. […]
Recorded endpoint: solubility at 1 h (µg/mL)

- CCC/N=C1\S/C(=C\c2ccc(OC[C@H](O)CO)c(Cl)c2)C(=O)N1c1ccccc1C [Form C, Ponesimod, reference compound]: 3
